Cited source: patent US20260070917A1

Biological target: CDK2 (Homo sapiens, UniProt P24941)
Construct: host or cells: HEK293-CDK2-Hibit
Experiment: HiBit Assay Protocol for CDK2 (HIBIT protein quantification, degradation)
Assay type: cell-based
Details: HEK293-CDK2-Hibit cells, compound treatment for 6 hours
Description: HiBit Assay Protocol for CDK2 • 1. The culture medium for HEK293-CDK2-Hibit cells was prepared using DMEM with 10% FBS. • 2. Cells were cultivated in T-75 flasks in a cell culture incubator set at 37° C., 5% CO2, 95% relative humidity. […] Cells were harvested from flask into cell culture medium and then the cell number was counted. […] • 1. […] 20 μL of HiBit reagent was added into each well and the plates were spinned at room temperature at 1,000 RPM for 1 minute to be detected. […]
Label true when CDK2 HIBIT Protein Quantification Maximum >= 60%; otherwise false.

compound: O=C1CCC(N2Cc3cc(N4CCN(CC5CCN(c6cccc(S(=O)(=O)c7ccc(Nc8ncc9c(n8)N([C@@H]8CCC[C@@H](O)C8)C(=O)C98CC8)cc7)c6)CC5)CC4)ccc3C2=O)C(=O)N1 (some centres unmarked) [Compound 126]
assigned.label: true
//
compound: CC1CCCC1N1C(=O)C2(CC2)c2cnc(NC3CCN(S(=O)(=O)N4CC5(CCN(C(=O)CCCCCCCCCc6ccc7c(c6)n(C)c(=O)n7C6CCC(=O)NC6=O)CC5)C4)CC3)nc21 (centres unmarked) [Compound 88]
assigned.label: false
//
compound: CC1CCCC1N1C(=O)C2(CC2)c2cnc(NC3CCN(S(=O)(=O)C4CCN(C(=O)CCCCCCCCCc5cccc6c5n(C)c(=O)n6C5CCC(=O)NC5=O)C4)CC3)nc21 (centres unmarked) [Compound 53]
assigned.label: true
//
compound: CC1CCCC1N1C(=O)C2(CC2)c2cnc(NC3CCN(S(=O)(=O)C4CCCN(C(=O)CCCCCCCc5cccc6c5n(C)c(=O)n6C5CCC(=O)NC5=O)C4)CC3)nc21 (centres unmarked) [Compound 48]
assigned.label: false
//
compound: Cn1nc(N2CCC(=O)NC2=O)c2ccc(C3CCN(Cc4cccc(S(=O)(=O)N5CCC(Nc6ncc7c(n6)N([C@@H]6CCC[C@@H](O)C6)C(=O)C76CC6)CC5)n4)CC3)cc21 [Compound 166]
assigned.label: true

###

Target: CCNE1 (Homo sapiens)
Construct: host or cells: HEK293-CCNE1-Hibit
Test: HiBit Assay Protocol for CCNE1 (HIBIT protein quantification, degradation)
Format: cell-based
Conditions: HEK293-CCNE1-Hibit cells, compound treatment for 6 hours
Label true (1) when CCNE1 HIBIT Protein Quantification Maximum >= 30%; otherwise false (0).

compound: CN(CCCN1CCC(c2cccc3c2n(C)c(=O)n3C2CCC(=O)NC2=O)CC1)S(=O)(=O)c1ccc(Nc2ncc3c(n2)N([C@@H]2CCC[C@@H](O)C2)C(=O)C32CC2)cc1 (some centres unmarked)
assigned.label: true (1)
--
compound: CC1CCCC1N1C(=O)C2(CC2)c2cnc(NC3CCN(S(=O)(=O)N4CCCN(C(=O)CCCCc5cccc6c5n(C)c(=O)n6C5CCC(=O)NC5=O)CC4)CC3)nc21 (centres unmarked)
assigned.label: true (1)
--
compound: O=C1CCC(N2Cc3cc(CN4CC(Oc5cccc(S(=O)(=O)c6ccc(Nc7ncc8c(n7)N([C@@H]7CCC[C@@H](O)C7)C(=O)C87CC7)cc6)c5)C4)ccc3C2=O)C(=O)N1 (some centres unmarked)
assigned.label: true (1)
--
compound: CC1CCCC1N1C(=O)C2(CC2)c2cnc(NC3CCN(S(=O)(=O)N4CC5CN(C(=O)CCCc6cccc7c6n(C)c(=O)n7C6CCC(=O)NC6=O)CC5C4)CC3)nc21 (centres unmarked)
assigned.label: false (0)
--
compound: C[C@H](c1cc(S(=O)(=O)N2CC[C@H](Nc3ncc4c(n3)N([C@@H]3CCC[C@@H](O)C3)C(=O)C43CC3)[C@H](F)C2)ccc1F)N1CCN(c2ccc3c(N4CCC(=O)NC4=O)nn(C)c3c2)CC1
assigned.label: true (1)

###

Biological target: CCNE1 (Homo sapiens, UniProt P24864)
Construct: host or cells: HEK293-CCNE1-Hibit
Sequence (P24864 whole entry): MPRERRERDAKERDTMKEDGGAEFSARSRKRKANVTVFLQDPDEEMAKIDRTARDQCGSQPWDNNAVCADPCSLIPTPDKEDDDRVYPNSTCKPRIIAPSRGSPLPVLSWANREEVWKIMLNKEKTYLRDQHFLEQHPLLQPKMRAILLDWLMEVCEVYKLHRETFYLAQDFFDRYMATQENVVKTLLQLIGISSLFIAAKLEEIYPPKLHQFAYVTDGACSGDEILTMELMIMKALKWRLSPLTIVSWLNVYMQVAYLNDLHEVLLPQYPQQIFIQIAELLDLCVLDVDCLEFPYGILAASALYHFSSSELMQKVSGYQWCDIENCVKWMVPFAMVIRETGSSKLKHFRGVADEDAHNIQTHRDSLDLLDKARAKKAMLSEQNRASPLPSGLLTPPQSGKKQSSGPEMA
Assay: HiBit Assay Protocol for CCNE1 (HIBIT protein quantification, degradation)
Format: cell-based
Conditions: HEK293-CCNE1-Hibit cells, compound treatment for 6 hours
Label 1.0 when CCNE1 HIBIT Protein Quantification Maximum >= 20%; otherwise 0.0.

compound: CC1CCCC1N1C(=O)C2(CC2)c2cnc(NC3CCN(S(=O)(=O)N4CC5(CCCCN5C(=O)CCCc5ccc6c(c5)n(C)c(=O)n6C5CCC(=O)NC5=O)C4)CC3)nc21 (stereo not shown)
assigned.label: 0.0
--
compound: C[C@@H](c1cccc(S(=O)(=O)N2CC[C@H](Nc3ncc4c(n3)N([C@@H]3CCC[C@@H](O)C3)C(=O)C43CC3)[C@H](F)C2)c1)N1CCN(c2ccc3c(N4CCC(=O)NC4=O)nn(C)c3c2)[C@@H](C)C1
assigned.label: 1.0
--
compound: CC1CCCC1N1C(=O)C2(CC2)c2cnc(NC3CCN(S(=O)(=O)N4CCN(C(=O)CCCCc5ccc6c(c5)n(C)c(=O)n6C5CCC(=O)NC5=O)CC4)CC3)nc21 (stereo not shown)
assigned.label: 0.0
--
compound: CC1CCCC1N1C(=O)C2(CC2)c2cnc(NC3CCN(S(=O)(=O)N4CCC5(CCCN5C(=O)CCCCc5ccc6c(c5)n(C)c(=O)n6C5CCC(=O)NC5=O)C4)CC3)nc21 (stereo not shown)
assigned.label: 0.0
--
compound: Cn1nc(N2CCC(=O)NC2=O)c2ccc(C3CCN(Cc4ccc(F)c(S(=O)(=O)N5CCC(Nc6ncc7c(n6)N([C@@H]6CCC[C@@H](O)C6)C(=O)C76CC6)CC5)c4)CC3)cc21
assigned.label: 1.0
--
compound: CC1CCCC1N1C(=O)C2(CC2)c2cnc(NC3CCN(S(=O)(=O)N4CC(N(C)C(=O)CCCc5cccc6c5n(C)c(=O)n6C5CCC(=O)NC5=O)C4)CC3)nc21 (stereo not shown)
assigned.label: 0.0
--
compound: CC1CCCC1N1C(=O)C2(CC2)c2cnc(NC3CCN(S(=O)(=O)C4CCCN(C(=O)CCCCc5cccc6c5n(C)c(=O)n6C5CCC(=O)NC5=O)C4)CC3)nc21 (stereo not shown)
assigned.label: 1.0
--
compound: CC(c1cc(S(=O)(=O)N2CC[C@H](Nc3ncc4c(n3)N([C@@H]3CCC[C@@H](O)C3)C(=O)C43CC3)[C@H](F)C2)ccc1F)N1CCC(c2ccc3c(N4CCC(=O)NC4=O)nn(C)c3c2)CC1 (single isomer, unassigned) [Compound 201]
assigned.label: 1.0
--
compound: CC1CCCC1N1C(=O)C2(CC2)c2cnc(NC3CCN(S(=O)(=O)N4CC5C4CCN5C(=O)CCCCCc4ccc5c(c4)n(C)c(=O)n5C4CCC(=O)NC4=O)CC3)nc21 (stereo not shown)
assigned.label: 0.0
--
compound: Cn1nc(N2CCC(=O)NC2=O)c2ccc(C3CCN(Cc4cc(S(=O)(=O)N5CCC(Nc6ncc7c(n6)N([C@@H]6CCC[C@@H](O)C6)C(=O)C76CC6)CC5)ccc4F)CC3)cc21
assigned.label: 1.0
--
compound: Cn1c(=O)n(C2CCC(=O)NC2=O)c2cccc(N3CCN(Cc4cccc(S(=O)(=O)N5CCC(Nc6ncc7c(n6)N([C@@H]6CCC[C@@H](O)C6)C(=O)C76CC6)CC5)c4)CC3)c21 (stereo partly shown)
assigned.label: 1.0
--
compound: CC1CCCC1N1C(=O)C2(CC2)c2cnc(NC3CCN(S(=O)(=O)C4CCN(C(=O)CCCCCCCCCc5ccc6c(c5)n(C)c(=O)n6C5CCC(=O)NC5=O)C4)CC3)nc21 (stereo not shown)
assigned.label: 1.0
--
compound: CC1CCCC1N1C(=O)C2(CC2)c2cnc(NC3CCN(S(=O)(=O)N4CC5(CCCN(C(=O)CCCCCCCCCc6cccc7c6n(C)c(=O)n7C6CCC(=O)NC6=O)C5)C4)CC3)nc21 (stereo not shown)
assigned.label: 0.0
--
compound: CC1CCCC1N1C(=O)C2(CC2)c2cnc(NC3CCN(S(=O)(=O)N4CC5C4CCN5C(=O)CCCCc4ccc5c(c4)n(C)c(=O)n5C4CCC(=O)NC4=O)CC3)nc21 (stereo not shown)
assigned.label: 0.0
--
compound: CC1CCCC1N1C(=O)C2(CC2)c2cnc(NC3CCN(S(=O)(=O)N4CCC5(CCN(C(=O)CCCCc6ccc7c(c6)n(C)c(=O)n7C6CCC(=O)NC6=O)C5)C4)CC3)nc21 (stereo not shown)
assigned.label: 0.0
--
compound: C[C@H]1CN(c2ccc3c(N4CCC(=O)NC4=O)nn(C)c3c2)CCN1[C@@H](C)c1cccc(S(=O)(=O)N2CC[C@H](Nc3ncc4c(n3)N([C@@H]3CCC[C@@H](O)C3)C(=O)C43CC3)[C@H](F)C2)c1
assigned.label: 1.0
--
compound: CC1CCCC1N1C(=O)C2(CC2)c2cnc(NC3CCN(S(=O)(=O)N4CC(N(C)C(=O)CCCCCCCCCc5ccc6c(c5)n(C)c(=O)n6C5CCC(=O)NC5=O)C4)CC3)nc21 (stereo not shown)
assigned.label: 1.0
--
compound: CC1CCCC1N1C(=O)C2(CC2)c2cnc(NC3CCN(S(=O)(=O)C4CCN(C(=O)CCCCCCCc5cccc6c5n(C)c(=O)n6C5CCC(=O)NC5=O)C4)CC3)nc21 (stereo not shown)
assigned.label: 1.0
